system: MS2 coat protein; assay: apparent KD of MS2 coat protein; higher = weaker reporter binding; details: Eterna round: R107; input ligand: theophylline 20 uM
Assay Metric: apparent KD of MS2 coat protein (nM)
A number alone suffices; assume nM.

Give its apparent KD of MS2 coat protein value. Item: CAACUGCUUGAGCUUACUUAUUGGACUUCCCGAGGACCGGUACGGCCGCCACUCGCAGGGACACAUGAGGAUCACCCAUGUAAAG [theeternabot_exclusion_MS2_Trp_A_42]
21.1

Give its apparent KD of MS2 coat protein value. Item: AUAACAUGAGGAUCACCCAUGUAUUGGUUACGAGGACCGGUACGGCCGCCACUCGUAUUAUAGUGGUAUUUUGUUUAUAUGAUAA [JR_Nu_TrtptoA_Sub019]
20

Give its apparent KD of MS2 coat protein value. Item: AGAUUCGACACGGCCGCCACUUGUGGUGGAUUAUCCUAUGUCGAACAUGAGGAUCACCCAUGUACAAGGACCGGGUGUUGAGUCU [XTryp B #21]
365
